Measurement target: T1, soluble ICAM-1 (Bender MedSystems) (UniProt P05362 28-480, limits assumed)
T1 construct: Bought soluble protein coated on the ELISA plate
T1 sequence (P05362 28-480 limits assumed): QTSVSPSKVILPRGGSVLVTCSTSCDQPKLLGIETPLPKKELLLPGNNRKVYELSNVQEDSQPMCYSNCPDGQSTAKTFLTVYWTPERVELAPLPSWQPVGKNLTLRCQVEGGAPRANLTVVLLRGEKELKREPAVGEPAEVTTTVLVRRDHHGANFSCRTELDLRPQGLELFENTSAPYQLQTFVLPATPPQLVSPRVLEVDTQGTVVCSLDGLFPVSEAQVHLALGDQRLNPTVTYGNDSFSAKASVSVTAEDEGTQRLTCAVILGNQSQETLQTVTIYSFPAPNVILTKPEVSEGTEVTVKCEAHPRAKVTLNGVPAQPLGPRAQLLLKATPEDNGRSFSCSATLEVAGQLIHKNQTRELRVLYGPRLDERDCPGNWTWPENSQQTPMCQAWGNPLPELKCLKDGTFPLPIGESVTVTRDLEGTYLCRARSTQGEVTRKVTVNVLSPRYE
Assay notes: ELISA on plate-coated soluble ICAM-1, His-tagged scFv detected with anti-His-HRP
Quantity measured: Kd (µM)
Numbers only here, please. The scale is µM.

Query: Kd; subject: Msc1A6 (parental mouse monoclonal antibody 1A6 in the form of scFv) (scFv, V domains shown, Tested as a single-chain Fv (one polypeptide); also called Mouse 1A6 scFv; mouse IA6 scFv) VH: EVQLQQSGAELVKPGASLKLSCTASGFNIKDTYIHWMKQRPEQGLEWIGRIDPANDNTIYDPKVQGKATMTADTSSNTAYLQLNSLTSEDTAVYYCTTSGYWFAYWGQGTLVTVSS VL: DIVLTQSPATLSVTPGDSVSLSCRASQSISNNLHWYQQKHSESPRLLIKHASQSISGIPSRFSGSGSGTDFTLSINSVETEDFGMFFCQQSNSWPYTFGGGTKLEIKR 1.18

// Kd lookup, key: HscH (humanized 1A6 scFv HumH) (scFv, not shown: carboxy-terminal His tag of vector pBAD/pIII A) scFv: DIQMTQSPSSLSASVGDRVTITCRASQSISNNLHWYQQKPGKAPKLLIKHASQSISGVPSRFSGSGSGTDFTLTISSLQPEDFATYYCQQSNSWPYTFGQGTKVEIKRGGGGSGGGGSGGGGSGGGGSEVQLVESGGGLVQPGGSLRLSCAASGFNIKDTYIHWVRQAPGKGLEWVARIDPANDNTIYDPKVQGRFTISADDSKNTAYLQMNSLRAEDTAVYYCTTSGYWFAYWGQGTLVTVSS 0.0209

# input binder: HscC (humanized 1A6 scFv HumC) (scFv, not shown: carboxy-terminal His tag of vector pBAD/pIII A) scFv: DIQMTQSPSSLSASVGDRVTITCRASQSISNNLHWYQQKPGKAPKLLIYHASQSISGVPSRFSGSGSGTDFTLTISSLQPEDFATYYCQQSNSWPYTFGQGTKVEIKRGGGGSGGGGSGGGGSGGGGSEVQLVESGGGLVQPGGSLRLSCAASGFNIKDTYIHWVRQAPGKGLEWVARIDPANDNTIYADSVKGRFTISGDDSKNTAYLQMNSLRAEDTAVYYCTTSGYWFAYWGQGTLVTVSS ; wanted: its Kd 0.058

I am curious: what Kd value has been reported for HscD (humanized 1A6 scFv HumD) (scFv, not shown: carboxy-terminal His tag of vector pBAD/pIII A) scFv: DIQMTQSPSSLSASVGDRVTITCRASQSISNNLHWYQQKPGKAPKLLIYHASQSISGVPSRFSGSGSGTDFTLTISSLQPEDFATYYCQQSNSWPYTFGQGTKVEIKRGGGGSGGGGSGGGGSGGGGSEVQLVESGGGLVQPGGSLRLSCAASGFNIKDTYIHWVRQAPGKGLEWVARIDPANDNTIYADSVKGRFTISSDDSKNTAYLQMNSLRAEDTAVYYCTTSGYWFAYWGQGTLVTVSS ? 0.0233
